Data credit: ChEMBL document CHEMBL4257536

Target: 5-hydroxytryptamine receptor 2B (Homo sapiens)
Sequence (P41595 whole entry): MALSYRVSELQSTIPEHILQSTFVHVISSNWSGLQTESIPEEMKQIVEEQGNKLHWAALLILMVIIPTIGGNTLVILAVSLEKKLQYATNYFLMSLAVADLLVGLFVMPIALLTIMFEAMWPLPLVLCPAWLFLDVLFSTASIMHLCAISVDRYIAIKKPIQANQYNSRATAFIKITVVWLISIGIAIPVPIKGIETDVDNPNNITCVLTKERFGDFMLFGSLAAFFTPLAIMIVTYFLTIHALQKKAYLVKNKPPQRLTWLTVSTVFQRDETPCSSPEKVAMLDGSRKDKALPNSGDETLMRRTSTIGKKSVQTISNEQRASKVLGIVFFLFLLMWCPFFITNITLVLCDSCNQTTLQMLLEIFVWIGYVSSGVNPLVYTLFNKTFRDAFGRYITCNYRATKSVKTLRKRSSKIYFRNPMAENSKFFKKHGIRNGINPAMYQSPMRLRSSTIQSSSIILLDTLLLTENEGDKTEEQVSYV
pKi: −log10 of the molar value.
quantity: pKi

>>> print(df.to_string())
                           structure_smiles                               test_system  recorded_number
0  O=C(NCc1ccccc1)C1CCN(C(=O)c2ccc(-c3ccccc3)cc2)CC1  5-hydroxytryptamine receptor 2B (Homo sapiens)             6.24
